Tested on: Klebsiella pneumoniae
Assay: Growth of the isolate in antibiotic mediums, sample 1
Format: cell-based
Details: microorganism isolated in sample 1 (Klebsiella pneumoniae); grown in antibiotic medium

- Chem smiles: "NCC[C@H](O)C(=O)N[C@@H]1C[C@H](N)[C@@H](O[C@H]2O[C@H](CN)[C@@H](O)[C@H](O)[C@H]2O)[C@H](O)[C@H]1O[C@H]1O[C@H](CO)[C@@H](O)[C@H](N)[C@H]1O"
  Result: "Not resistant"
- Chem smiles: "CO/N=C(\\C(=O)N[C@@H]1C(=O)N2C(C(=O)O)=C(CSc3nc(=O)c(=O)[nH]n3C)CS[C@H]12)c1csc(N)n1"
  Result: "Resistant"
- Chem smiles: "O=C(O)c1cn(C2CC2)c2cc(N3CCNCC3)c(F)cc2c1=O"
  Result: "Resistant"
- Chem smiles: "COc1cccc(OC)c1C(=O)N[C@@H]1C(=O)N2[C@@H]1SC(C)(C)[C@@H]2C(=O)O"
  Result: "Not resistant"
